molecular target: Rv1466 (Mycobacterium tuberculosis)
Sequence (O53157 entry or part of it): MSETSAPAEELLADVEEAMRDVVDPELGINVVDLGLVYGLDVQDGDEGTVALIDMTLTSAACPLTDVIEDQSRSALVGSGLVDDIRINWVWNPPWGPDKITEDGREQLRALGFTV
pKd: −log10 of the molar value.

{"columns": ["smilesInput", "pKd"],
 "data": [
  ["O=C1C=C[C@@H]2O[C@H](c3ccccc3)[C@@H](O)[C@@H]2O1", 4.38]
]}

// provenance: paper PMC7288112
